From: patent US20230263822A1

Assay: Hematology assays in cynomolgus monkeys (Example 45)
Assay type: in vivo
Conditions: day 71; escalating dose regimen
QUANTITY_MEASURED: hematocrit (%)
Give bare numbers, in %.

See these solved cases before continuing.
ISIS 416850: MOE gapmer, nucleobases 1275 to 1318 of SEQ ID NO: 1 (Table 8) (antisense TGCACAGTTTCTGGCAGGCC; MOE gapmer, wing and gap sizes not given here)	43
ISIS 417002: MOE gapmer, nucleobases 1275 to 1318 of SEQ ID NO: 1 (Table 8) (antisense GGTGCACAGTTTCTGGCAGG; MOE gapmer, wing and gap sizes not given here)	43
ISIS 416864: MOE gapmer, nucleobases 1275 to 1318 of SEQ ID NO: 1 (Table 8) (antisense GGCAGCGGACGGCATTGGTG; MOE gapmer, wing and gap sizes not given here)	44
ISIS 416858: MOE gapmer, nucleobases 1275 to 1318 of SEQ ID NO: 1 (Table 8) (antisense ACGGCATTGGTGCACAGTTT; MOE gapmer, wing and gap sizes not given here)	42

--- query ---
Data request: Would you mind telling me what hematocrit value was observed for ISIS 416838: MOE gapmer, nucleobases 1018 to 1042 of SEQ ID NO: 1 (Table 6) (antisense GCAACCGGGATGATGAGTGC; MOE gapmer, wing and gap sizes not given here) ?
Data returned: 44

----------
System: Factor 11 protein
Test: Factor 11 protein in monkey plasma by sandwich ELISA (Example 45)
Type: in vivo, cynomolgus monkeys
Details: day −5; escalating dose regimen; plasma ELISA
QUANTITY_MEASURED: Inhibition of Factor 11 protein relative to the PBS control (%)
Numbers only, in %.

See these solved cases before continuing.
ISIS 416864: MOE gapmer, nucleobases 1275 to 1318 of SEQ ID NO: 1 (Table 8) (antisense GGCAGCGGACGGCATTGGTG; MOE gapmer, wing and gap sizes not given here)	5
ISIS 416858: MOE gapmer, nucleobases 1275 to 1318 of SEQ ID NO: 1 (Table 8) (antisense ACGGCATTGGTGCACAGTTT; MOE gapmer, wing and gap sizes not given here)	0
ISIS 416850: MOE gapmer, nucleobases 1275 to 1318 of SEQ ID NO: 1 (Table 8) (antisense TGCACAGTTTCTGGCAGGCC; MOE gapmer, wing and gap sizes not given here)	0
ISIS 416838: MOE gapmer, nucleobases 1018 to 1042 of SEQ ID NO: 1 (Table 6) (antisense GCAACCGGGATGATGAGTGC; MOE gapmer, wing and gap sizes not given here)	0

--- query ---
Data request: Would you mind telling me what Inhibition of Factor 11 protein relative to the PBS control value was observed for ISIS 417002: MOE gapmer, nucleobases 1275 to 1318 of SEQ ID NO: 1 (Table 8) (antisense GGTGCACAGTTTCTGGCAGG; MOE gapmer, wing and gap sizes not given here) ?
Data returned: 0

----------
System: human Factor 11 mRNA
Test: Dose-dependent inhibition of human Factor 11 in HepB3 cells, lipofectin (Example 7)
Type: cell-based
For each record, write down the corresponding pIC50.
Answers are plain numbers, as −log10 of the molar value.

See these solved cases before continuing.
416850 (antisense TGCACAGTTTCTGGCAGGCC; 5-10-5 gapmer, further chemistry not given here) [compound 416850]	7.89
416825 (antisense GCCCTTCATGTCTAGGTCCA; 5-10-5 gapmer, further chemistry not given here) [compound 416825]	7.46
416838 (antisense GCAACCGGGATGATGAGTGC; 5-10-5 gapmer, further chemistry not given here) [compound 416838]	7.96

Give measured pIC50 for every item shown.
1. 416864 (antisense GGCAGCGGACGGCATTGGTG; 5-10-5 gapmer, further chemistry not given here) [compound 416864]
2. 416999 (antisense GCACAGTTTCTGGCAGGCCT; 2-13-5 gapmer chemistry, further chemistry not given here) [compound 416999]
3. 417003 (antisense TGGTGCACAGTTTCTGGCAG; 2-13-5 gapmer chemistry, further chemistry not given here) [compound 417003]
4. 416826 (antisense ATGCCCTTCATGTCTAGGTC; 5-10-5 gapmer, further chemistry not given here) [compound 416826]
5. 416858 (antisense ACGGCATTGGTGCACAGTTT; 5-10-5 gapmer, further chemistry not given here) [compound 416858]

Data returned:
8.05
7.92
7.77
7.80
7.92
